# System: RXF 393
# procedure.text: NCI tumour cell line growth inhibition, 48 h
Activity calls are given as the source filed them. No stated cut-off is given here; in the data, active = GI50 up to about 1.1 µM and inactive = higher.
property.measured: GI50

Solved cases (5 shown):
compound	GI50
C=CC(=C)CCC(Br)C(C)(C)Cl (stereo not drawn)	> 100 µM (inactive)
COC(=O)c1ccccc1NC(=O)C(=O)Cc1nc2c3c(ccc2nc1O)C(=O)c1ccccc1C3=O	2.08 µM (inactive)
O=C(O)c1ccc(Oc2nc3ccccc3s2)cc1	> 100 µM (inactive)
COc1ccc(C2c3cc(OC)c(OC)cc3C(Cc3ccc([N+](=O)[O-])cc3)C2c2ccc([N+](=O)[O-])cc2)cc1OC (stereo not drawn)	27.7 µM (inactive)
CC1=C(SCc2ccccc2)C(=O)c2ccccc2C1=O	16.6 µM (inactive)

Qu. So what GI50 did Cc1cc(Cl)cc2c1NC(=O)C2(O)CC(=O)c1ccco1 (stereo not drawn) get with RXF 393?
Ans. 57 µM (inactive)

Qu. Now the compound CC(=O)NC(C=O)C(O[C@H](C)C(=O)NC(C)C(=O)NC(CCC(N)=O)C(=O)OCc1ccccc1)C(O)C(O)COC(=O)CCNc1c2ccccc2nc2cccc([N+](=O)[O-])c12 (stereo partly drawn)
Ans. 3.96 µM (inactive)

Qu. Now the compound CC1C=C(CCCCCCCCCCCC[C@@H](O)[C@@H]2CC[C@@H]([C@@H]3CC[C@@H](C(O)CCCCCCCCCCCCC4=C[C@H](C)OC4=O)O3)O2)C(=O)O1 (stereo partly drawn)
Ans. > 96.8 µM (inactive)

---

List of GI50 values.
# System: SR
# procedure.text: NCI tumour cell line growth inhibition, 48 h
The source made the active and inactive calls. Cut-off read from the data, not from the text of the source: active = GI50 up to about 1.1 µM and inactive = higher.

Solved cases (5 shown):
compound	target.system	GI50
Cc1oc(N)c(S(=O)(=O)c2ccc(Cl)cc2)c1C	SR	86.3 µM (inactive)
COc1ccc2cc(Oc3ccc(Cl)cc3)c(=O)oc2c1	SR	> 100 µM (inactive)
COc1ccc(C[N+](C)(C)N)cc1OC	SR	> 10 µM (inactive)
O=C(c1ccc(Cl)cc1Cl)C1[C@H]2C(=O)N(c3ccc(Cc4ccc(N5C(=O)[C@@H]6ON(c7ccccc7)C(C(=O)c7ccc(Cl)cc7Cl)[C@@H]6C5=O)cc4)cc3)C(=O)[C@H]2ON1c1ccccc1 (stereo partly specified)	SR	> 50 µM (inactive)
COc1ccc2c(c1)OCC1Cc3cc4c(cc3OC21)OCO4 (stereo unspecified)	SR	40.6 µM (inactive)

Qu. Recorded GI50 of CCC(=O)Nc1ccc(NC(C#N)c2cccc(Oc3ccccc3)c2)cc1 (stereo unspecified) , please.
Ans. 18.2 µM (inactive)

---

# Test system: RPMI-8226
# procedure.text: NCI tumour cell line growth inhibition, 48 h
Active and inactive are the calls of the source. Cut-off read from the data, not from the text of the source: active = GI50 up to about 1.1 µM and inactive = higher.
Parameter call: string, one of 1.0 (active), 0.0 (inactive)

Known results for compounds:
compound	target.system	class.name
COC(=O)C1CCc2c(OC)ccc(OC)c2C1=O (centres undefined)	RPMI-8226	0.0
C=CCO/N=C(\OC(=O)c1ccc([N+](=O)[O-])cc1)c1ccccc1	RPMI-8226	0.0
CC12CCC(C(Nc3ccccn3)C1=O)C2(C)C (centres undefined)	RPMI-8226	0.0
Cc1ncn(-c2ccccc2O)c1C	RPMI-8226	0.0
Cn1c(=O)n2c(=O)n(C)c(=O)n2c1=O	RPMI-8226	0.0
Cn1c(=O)c2c(O)cc(N)nc2n(C)c1=O	RPMI-8226	0.0

Qu. Would you mind telling me which call this test gave COCC(O)Cn1ccnc1[N+](=O)[O-] (centres undefined) ?
Ans. 0.0

Qu. Now the compound Oc1[nH]c(Nc2ccc(F)c(Cl)c2)nc2ncnc1-2
Ans. 0.0

Qu. Now the compound CN(C)/C=N/c1nc2ncn(CCOC(=O)c3ccccc3)c2c(=O)[nH]1
Ans. 0.0

Qu. Now the compound COC(=O)c1ccc(/C=C/C2=CC(=O)C=CC2=O)cc1
Ans. 1.0
